# credit: paper PMC10208593

IC50 overview
# Tested on: SNU475
# Experiment notes: SRB cytotoxicity assay, SNU475
# Assay type: cell-based
# Run parameters: Homo sapiens, SNU-475, read-out: IC50 (μM) ± S.D. SNU475

| Molecule | Display unit | IC50 |
| --- | --- | --- |
| CNC(=O)c1cc(Oc2ccc(NC(=O)Nc3ccc(Cl)c(C(F)(F)F)c3)cc2)ccn1 [Sorafenib, sorafenib, reference compound] | µM | 9.6 |
| CC(C)(C)c1ccc(NC(=O)c2cc(-c3c[nH]c4ccccc34)n[nH]2)cc1 | µM | 4.3 |
| COc1ccc(OC)c(NC(=O)c2cc(-c3c[nH]c4ccccc34)n[nH]2)c1 | µM | 2.9 |
| COc1cc(NC(=O)c2cc(-c3c[nH]c4ccccc34)n[nH]2)cc(OC)c1OC | µM | 4.1 |

* * *

# System: Huh7
# Experiment notes: SRB cytotoxicity assay, Huh7
# Type: cell-based
# Run parameters: Homo sapiens, Huh-7, 72 h, read-out: IC50 (μM) ± S.D. Huh7
IC50 overview

| Smiles text | IC50 |
| --- | --- |
| O=C(Nc1ccc(Cl)cc1)c1cc(-c2c[nH]c3ccccc23)n[nH]1 | > 50 µM |
| CCCCNC(=O)c1cc(-c2c[nH]c3ccccc23)n[nH]1 | > 50 µM |
| O=C(Nc1ccc(Br)cc1)c1cc(-c2c[nH]c3ccccc23)n[nH]1 | > 50 µM |
